Experiment: chemical genetic growth profiling, strain panel (AID 1159580);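 also: tested at 20 µM; growth read once vehicle control cultures reached saturation at 30 °C; 1 = growth at the plate median or of vehicle wells; lower values mean less growth of the strain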
Settings: S. cerevisiae deletion strains, growth OD, locus YGL086W, strain mad1, active compounds read low
Screen size: about 5,500 compounds; about 2,000 (36%) were called active. Roughly 18% stayed inconclusive and do not appear here. The list shows a part of the results.
Reported Endpoint: normalized growth
API doc: respond with a numeric literal and nothing else, no unit.

Can you share its normalized growth? I mean this molecule: CC(=O)OC1CCC2(O)CC1(C)CCC1C2CC1(C)C (configuration not stated)
0.996

Using the record for COc1ccc(-c2c(O)c3c(OC)c4c(cc3oc2=O)OC(C)(C)C=C4)cc1 , report its normalized growth.
0.949

Given the molecule COc1ccc(NS(=O)(=O)c2ccc(N)cc2)nn1 , what is its reported normalized growth?
0.995

If you can, please state the reported normalized growth value of CC(=O)OC1CCC23CC1(C)CCC2C(C)(C)CC3OC(C)=O (configuration not stated) .
0.959

// normalized growth lookup, key: CC(C)N1C(=O)c2ccccc2NS1(=O)=O
0.996

Quick check: normalized growth of O=C1NS(=O)(=O)c2ccccc21 ?
0.998

Entry COc1cc([C@@H]2c3cc4c(cc3[C@H](O)[C@H]3COC(=O)[C@H]23)OCO4)cc(OC)c1OC : reported normalized growth = ?
1

Could you share which normalized growth value was measured for CC(=O)NS(=O)(=O)c1ccc(N)cc1 ?
1

Tell me the measured normalized growth of O=C(O)c1cc(=O)c2ccccc2[nH]1 , please.
0.998

Using the record for NC(=NCCCCCCN=C(N)N=C(N)Nc1ccc(Cl)cc1)N=C(N)Nc1ccc(Cl)cc1 , report its normalized growth.
0.0564

Would you mind telling me what normalized growth value was observed for COc1ccccc1OCC(O)COC(N)=O (configuration not stated) ?
1.02

# query: normalized growth of entry CC(C)N=C(N)N=C(N)Nc1ccc(Cl)cc1
1.01

---

Record form. Attribute: normalized growth. Fill in for each entry.
Experiment: chemical genetic growth profiling, strain panel (AID 1159580)
Details: S. cerevisiae deletion strains, growth OD, locus YGR078C, strain PAC10, active compounds read low
Screen size: about 5,500 compounds; about 2,000 (36%) were called active. About 18% were inconclusive and are not listed. Some of the results follow.

# query: normalized growth of entry O=c1onc2n1-c1cc(Br)ccc1OC2
0.952 (inactive)

Given the compound CCCc1ncc(C[n+]2ccccc2C)c(N)n1 , what is its reported normalized growth?
0.983 (inactive)

Given the entry Cc1c(NC(C)C)c(=O)n(-c2ccccc2)n1C , report its measured normalized growth.
0.987 (inactive)

Entry Cc1ccc(O)c(C(CCN(C(C)C)C(C)C)c2ccccc2)c1 (stereo not given) : reported normalized growth = ?
1.01 (inactive)

So what's the measured normalized growth for this one? O=C(O)c1cccnc1C(=O)O
1.01 (inactive)

---

Field: normalized growth. Provide a value for each of the molecules that follow.
Assay: chemical genetic growth profiling, strain panel (AID 1159580);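 also: tested at 20 µM; growth read once vehicle control cultures reached saturation at 30 °C; 1 = growth at the plate median or of vehicle wells; lower values mean less growth of the strain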
Settings: S. cerevisiae deletion strains, growth OD, locus YDR162C, strain NBP2, active compounds read low
Among all 5,500 compounds or so, about 2,000 (36%) were called active. Roughly 18% stayed inconclusive and do not appear here. This is one part of the list.

Suppose we examine the molecule CC1=C(C(=O)O)N2C(=O)[C@@H](NC(=O)[C@@H](N)c3ccc(O)cc3)[C@H]2SC1 ; what normalized growth value has been reported?
0.967 (inactive)

Entry CC(C)C1CCC(C(=O)N[C@@H](Cc2ccccc2)C(=O)O)CC1 (stereo partly specified) : reported normalized growth = ?
0.987 (inactive)

Need normalized growth, item CC1(C)CC23C(=O)CCC(O)C2(C)CCC13 (stereo unspecified)
1.01 (inactive)

Item N[C@@H](C(=O)N[C@@H]1C(=O)N2C(C(=O)O)=C(Cl)CS[C@H]12)c1ccccc1 has what recorded normalized growth?
1.02 (inactive)

Bench note: what normalized growth did CN1CCN(C2=Nc3cc(Cl)ccc3Nc3ccccc32)CC1 show?
0.97 (inactive)

normalized growth lookup needed for O=C(Nc1ccc([N+](=O)[O-])cc1Cl)c1cc(Cl)ccc1O , thanks.
0.832 (active)

---

Experiment: chemical genetic growth profiling, strain panel (AID 1159580);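 also: tested at 20 µM; growth read once vehicle control cultures reached saturation at 30 °C; 1 = growth at the plate median or of vehicle wells; lower values mean less growth of the strain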
Conditions: S. cerevisiae deletion strains, growth OD, locus YDR334W, strain swr1, active compounds read low
In all, about 5,500 compounds went through this assay and about 2,000 (36%) were called active. Another 18% or so got no clear call; they are omitted. The list shows a part of the results.
Reported Endpoint: normalized growth
Please give only the number in your answer, with no unit.

If you can, please state the reported normalized growth value of CCCCCC/C=C\CCCCCCCc1cccc(O)c1C(=O)O .
0.956

What does the data say about its normalized growth? Entry: O=C1C=CC(=O)c2ccccc21
0.0769

# get_value(readout='normalized growth', item= COc1cc(O)ccc1C(C)=O )
1.02

Fill in: normalized growth of O=C1NS(=O)(=O)c2ccccc21 is ___
1.02

Looking for the measured normalized growth of C[C@H]1C(=O)CCC2[C@]3(C)CC[C@@]4(C)C5CC(C)(C)CC[C@]5(C)CC[C@]4(C)C3CC[C@@]21C (stereo partly specified) , can you help?
1

I am curious: what normalized growth value has been reported for COc1ccc(CC(=O)c2ccc(O)cc2O)cc1 ?
0.991

Sample CC(=O)OC1CCC2(O)CC1(C)CCC1C2CC1(C)C (stereo unspecified) — what was its normalized growth?
1.03

Please report the recorded normalized growth for Oc1cccc2cccnc12 .
0.0621

# input compound: CC(=O)O[C@H]1CC2CCC3C(CC[C@@]4(C)C3C[C@H]([N+]3(C)CCCCC3)[C@@H]4OC(C)=O)[C@@]2(C)C[C@@H]1N1CCCCC1 (stereo partly specified) ; wanted: its normalized growth
1.02

Item under review: CC(=O)OC1CCC23CC1(C)CCC2C(C)(C)CC3OC(C)=O (stereo unspecified) . Reported normalized growth?
1.01

Query (compound): C[N+]12CCC(CC1)C(OC(=O)C(O)(c1ccccc1)c1ccccc1)C2 (stereo unspecified) ; field requested: normalized growth
0.938

---

Experiment: chemical genetic growth profiling, strain panel (AID 1159580);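 also: tested at 20 µM; growth read once vehicle control cultures reached saturation at 30 °C; 1 = growth at the plate median or of vehicle wells; lower values mean less growth of the strain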
Details: S. cerevisiae deletion strains, growth OD, locus YPR163C, strain tif3
The campaign covered roughly 5,500 compounds. About 2,000 (36%) were called active. Roughly 18% stayed inconclusive and do not appear here. Cut-off read from the data, not from the text of the source: active = normalized growth mostly below about 0.91 (no sharp cut-off); inconclusive = no clear call, values can overlap the other calls; inactive = mostly above about 0.92. The list shows a part of the results.
Classes to choose from: active, inactive

Dear all, I need the recorded test outcome for O=C1C(=O)c2ccccc2C(O)=C1C1CCC(c2ccc(Cl)cc2)CC1 (stereo not drawn) , thank you.
inactive

Field: outcome | Entry: CNC(=O)Oc1ccccc1OC(C)C
inactive

For C=C(C)C1Cc2c(ccc3c(=O)c4c(oc23)COc2cc(OC)c(OC)cc2-4)O1 (stereo not drawn) , which call appears in the assay record?
inactive

Would you mind telling me which call this test gave CN1CCCCC1c1ccc(-c2cccnc2)nc1 (stereo not drawn) ?
inactive

Assay outcome for Cn1c(=O)c2c(ncn2C)n(C)c1=O : what was it?
inactive

Write down the call the test reported for this molecule. Item: Cc1cc(O)c2c(c1)C(=O)c1cccc(O)c1C2=O
inactive

Tell me the recorded outcome of this test for O=C(/C=C/c1ccc(O)cc1)c1ccc(O)cc1O .
inactive

What is the recorded call for this molecule in the test? O=C1c2ccccc2C(=O)c2ccccc21
inactive

Tell me the assay call for O=C1c2cccc(O)c2C(=O)c2c(O)cccc21 please.
active

How did this test come out for O=C(O)c1cc(O)c2c(c1)C(=O)c1cc(O)cc(O)c1C2=O ?
inactive

What classification did CC(C)=CCC/C(C)=C/CO end up with in this test?
inactive

State the result this test recorded for Cn1c(=O)[nH]c2ncn(C)c2c1=O .
inactive

Can you look up the reported call for C=C(C)C1Cc2c(ccc(C(=O)O)c2O)O1 (stereo not drawn) for me?
inactive

Could you please tell me the result logged for CNC(=O)N(C)c1nnc(C(C)(C)C)s1 in this assay?
inactive

Called result for CC(C)N=C(N)N=C(N)Nc1ccc(Cl)cc1
inactive

For COc1ccc(-c2c(O)c3c(OC)c4c(cc3oc2=O)OC(C)(C)C=C4)cc1 , what call appears in the results of this test?
active

Given COc1cc([C@@H]2c3cc4c(cc3[C@H](O)[C@H]3COC(=O)[C@H]23)OCO4)cc(OC)c1OC , state the outcome it received in this test.
inactive

Would you mind telling me which call this test gave Oc1cccc2cccnc12 ?
active

Returns: the outcome recorded for Cn1c(=O)c2c(ncn2CCO)n(C)c1=O in this assay.
inactive

Field: outcome | Entry: COc1cc2cccc(OC)c(=O)c2c(OC)c1OC
inactive

Test call, this molecule: CC[C@H]1OC(=O)[C@H](C)[C@@H](O[C@H]2C[C@@](C)(OC)[C@@H](O)[C@H](C)O2)[C@H](C)[C@@H](O[C@@H]2O[C@H](C)C[C@H](N(C)C)[C@H]2O)[C@](C)(O)C[C@@H](C)/C(=N/OCOCCOC)[C@H](C)[C@@H](O)[C@]1(C)O
inactive

Just curious, what result did Cc1c(NC(C)C)c(=O)n(-c2ccccc2)n1C get here?
inactive

Per the assay record, what outcome was assigned to O=C1C=CC(=O)c2c(O)cccc21 ?
inactive

What outcome does the record of this test show for COc1cc(O)ccc1C(C)=O ?
inactive

Recorded test outcome, item CC(C)c1cc2c(c(O)c1O)[C@@]1(C(=O)O)CCCC(C)(C)C1CC2 (stereo partly drawn)
inactive

Could you kindly confirm the outcome this assay logged for Cn1c(=O)[nH]c2nc[nH]c2c1=O ?
inactive

Would you mind telling me which call this test gave CC(=O)CCCCn1c(=O)c2c(ncn2C)n(C)c1=O ?
inactive

Assay outcome for COC(=O)c1cc(OC)c(=O)c2c(OC)c(OC)ccc2c1 : what was it?
inactive

Assay outcome for CC(C)N1C(=O)c2ccccc2NS1(=O)=O : what was it?
inactive

Recorded call for COc1ccc(/C=C/c2cc(O)cc(O[C@@H]3O[C@H](CO)[C@@H](O)[C@H](O)[C@H]3O)c2)cc1 ?
inactive

Lab log entry: O=C(/C=C/c1ccccc1)c1c(O)cc(O)cc1O — outcome as called in the assay?
inactive

Which result was noted for this molecule in the test: COC1=CC23CCCN2CCc2cc4c(cc2C3C1O)OCO4 (stereo not drawn)
inactive

Just curious, what result did Cn1cnc2c1c(=O)[nH]c(=O)n2C get here?
inactive

In this assay, the call recorded for O=C(O)c1cccnc1C(=O)O was what?
inactive

Returns: the outcome recorded for O=C1C=C(O)c2ccccc2C1=O in this assay.
inactive

Per the records of this test, what outcome belongs to C=C[C@H]1CN2CC[C@H]1C[C@H]2[C@H](O)c1ccnc2ccccc12 ?
inactive

Would you mind telling me which call this test gave C/C(=C\CO)CC[C@H](C)CCC[C@H](C)CCCC(C)C ?
active

Each molecule tested received a call. Report the one for COc1ccccc1OCC(O)COC(N)=O (stereo not drawn) .
inactive

What is the recorded call for this molecule in the test? CC(=O)Nc1c(I)cc(I)c(C(=O)O)c1I
inactive

Could you kindly confirm the outcome this assay logged for COc1ccc(CC(=O)c2ccc(O)cc2O)cc1 ?
active

Could you check what this test reported for COc1cc(OC)c2c(OC)c(-c3ccc4c(c3)OCO4)c(=O)oc2c1 ?
inactive

Write down the call the test reported for this molecule. Item: CN1CCC[C@H]1c1cccnc1
inactive

For N[C@@H](C(=O)N[C@@H]1C(=O)N2C(C(=O)O)=C(Cl)CS[C@H]12)c1ccccc1 , what call appears in the results of this test?
inactive

// return assay outcome for CC(C)[C@@H]1CC[C@@H](C)CC1=O
inactive

Hi, do you know how CC(=O)OC[C@@]1(O)C[C@@]23CCC4c5ccoc5CC[C@]4(C)C2CC[C@@H]1C3 (stereo partly drawn) came out in this test?
inactive

Can you look up the reported call for COc1cc2c(cc1OC)C(C)NCC2 (stereo not drawn) for me?
inactive

Write down the call the test reported for this molecule. Item: C[C@H]1C(=O)CCC2[C@]3(C)CC[C@@]4(C)C5CC(C)(C)CC[C@]5(C)CC[C@]4(C)C3CC[C@@]21C (stereo partly drawn)
inactive

How did this test come out for NS(=O)(=O)c1cc2c(cc1Cl)NCNS2(=O)=O ?
inactive
